So basically: logP at 2 or higher? That is criterion met. Lower than 2? That is criterion not met.

Example cases with answers are listed next.
querySmiles: CCCCSC1=C(NC(C)=O)C(=O)c2ccccc2C1=O
label: criterion met
//
querySmiles: Cc1ccc2c(c1)C(=O)C=CC2=O
label: criterion met
//
querySmiles: O=C1C=C(Cl)C(=O)c2ccccc21
label: criterion met

Incoming: Assess whether reported logP for O=C1C=C(Nc2ccccc2)C(=O)c2ccccc21 sits at 2 or higher.
Outgoing: criterion met

Incoming: # bool: logP of O=C1C=C(c2ccccc2)C(=O)c2ccccc21 >= 2
Outgoing: criterion met

Incoming: logP >= 2 for O=C1C(Cl)=C(Nc2ccccc2)C(=O)c2ccccc21 ?
Outgoing: criterion met

Incoming: Can Cc1cc2c(cc1C)C(=O)C=CC2=O be said to have logP at or above 2?
Outgoing: criterion met

Incoming: Please indicate if the recorded logP for O=[N+]([O-])/C=C/c1ccc(Cl)cc1 meets or exceeds 2.
Outgoing: criterion met

Incoming: API: above_or_equal(metric=logP, cutoff=2) for item CCCCNC1=C(Cl)C(=O)c2ccccc2C1=O
Outgoing: criterion met

Incoming: Is it the case that O=[N+]([O-])/C=C/c1ccc([N+](=O)[O-])cc1 has logP reaching or exceeding 2?
Outgoing: criterion not met

Incoming: Does O=C1C=C(S(=O)(=O)c2ccccc2)C(=O)c2ccccc21 have a reported logP of at least 2?
Outgoing: criterion met
